Cited source for all entries: ChEMBL document CHEMBL3120136

experimental_protocol: Metabolic stability in dog hepatocytes assessed as extraction ratio at 1 uM
Assay type: ADME, cell-based, Canis lupus familiaris, Hepatocyte
conditions_used: read-out: ERH
quantity: hepatic extraction ratio at 1 µM

CC(C)(C)OC(=O)N[C@H]1CCCCC/C=C\[C@@H]2C[C@@]2(C(=O)NS(=O)(=O)C2CC2)NC(=O)[C@@H]2C[C@@H](OC(=O)N3Cc4cccc(F)c4C3)CN2C1=O [DANOPREVIR] ... 0.23
CC(C)(C)OC(=O)N[C@H]1CCCCC/C=C\[C@@H]2C[C@@]2(C(=O)NS(=O)(=O)C2CC2)NC(=O)[C@@H]2C[C@@H](OC(=O)N3CCc4ccccc4C3)CN2C1=O ... 0.36

[A] CC(C)(C)OC(=O)N[C@H]1CCCCC/C=C\[C@@H]2C[C@@]2(C(=O)NS(=O)(=O)C2CC2)NC(=O)[C@@H]2C[C@@H](OC(=O)N3Cc4ccccc4C3)CN2C1=O
[B] CN(C)S(=O)(=O)NC(=O)[C@@]12C[C@H]1/C=C\CCCCC[C@H](NC(=O)OC(C)(C)C)C(=O)N1C[C@H](OC(=O)N3Cc4ccccc4C3)C[C@H]1C(=O)N2
Prompt: Lab note: check whether A or B has the lower measured hepatic extraction ratio at 1 µM. Lab note: record the label of whichever item you select.
Response: B
(B: 0.16, A: 0.33)
